- Test system: P12-Ichikawa
- METHOD SUMMARY: cell viability relative to DMSO control; higher = less cytotoxic
- COND: RPMI 5 mM glucose + 10% dialyzed FBS; 48 h; 15.4 µM
yes (1) if cell viability is below 90%. no (0) if not; exact matches included in no (0).

q: # check: cell viability < 90% for "O=[N+]([O-])c1cn2c(n1)OC[C@@H](OCc1ccc(OC(F)(F)F)cc1)C2"
a: no (0)

q: # check: cell viability < 90% for "Cc1c(C(=O)Nc2ccc(N3C[C@@H](C)O[C@@H](C)C3)nc2)cccc1-c1ccc(OC(F)(F)F)cc1"
a: yes (1)

q: # check: cell viability < 90% for "C[C@]\1(CCS\C(=N1)N)C2=CC(=C(F)C=C2F)C3=CN=CN=C3"
a: yes (1)

q: # check: cell viability < 90% for "O=C(NC1CCOCC1)c1ccc(-c2cc(-c3c[nH]nc3-c3ccccn3)ccn2)cc1"
a: no (0)

q: # check: cell viability < 90% for "O=C(O)c1ccccc1C(=O)Nc1ccc(-c2ccccc2)cc1"
a: no (0)

q: # check: cell viability < 90% for "COc1cc(N2CCC(O)CC2)ccc1Nc1cc(Nc2ccccc2[S+](=O)([O-])C(C)C)c2cc[nH]c2n1"
a: yes (1)

----------
Answer each item with its documented cell viability.
- System: P12-Ichikawa
- METHOD SUMMARY: cell viability relative to DMSO control; higher = less cytotoxic
- COND: HPLM + 10% dialyzed FBS; 48 h; 15.4 µM
Report the value in % with no unit label.

q: Param readout= cell viability; system= P12-Ichikawa; entry= "CC[C@]1(O)C[C@H]2CN(CCC3=C([NH]C4=C3C=CC=C4)[C@@](C2)(C(=O)OC)C5=CC6=C(C=C5OC)N(C=O)[C@H]7[C@](O)([C@H](OC(C)=O)[C@]8(CC)\C=C/C[N@@]9CC[C@]67[C@H]89)C(=O)OC)C1" ; returns value.
a: 9.28

q: Param readout= cell viability; system= P12-Ichikawa; entry= "COc1cc2c(N3CCN(C(=O)Nc4ccc(OC(C)C)cc4)CC3)ncnc2cc1OCCCN1CCCCC1" ; returns value.
a: 58

q: Param readout= cell viability; system= P12-Ichikawa; entry= "C[C@]\1(CCS\C(=N1)N)C2=CC(=C(F)C=C2F)C3=CN=CN=C3" ; returns value.
a: 15.2

q: Param readout= cell viability; system= P12-Ichikawa; entry= "CC(C)C[C@H](CN)CC(=O)O" ; returns value.
a: 94.2

q: Param readout= cell viability; system= P12-Ichikawa; entry= "CC/1=C/N([C@@H]2C[C@@H](O)[C@H](CO)O2)C(=O)NC1=O" ; returns value.
a: 74.2

q: Param readout= cell viability; system= P12-Ichikawa; entry= Cc1ccc(C(C)(O)c2nc3ccccc3s2)c(C)c1 (stereo not drawn) ; returns value.
a: 37.5

q: Param readout= cell viability; system= P12-Ichikawa; entry= "COc1cc2nccc(Oc3ccc(NC(=O)Nc4cc(C)on4)c(Cl)c3)c2cc1OC" ; returns value.
a: 113

q: Param readout= cell viability; system= P12-Ichikawa; entry= CC1SC/2=C(C(O)=O)/C(=O)C3=CC(=C(C=C3N12)N4CCN(CC4)C\C5=C(C)\OC(=O)O5)F (stereo not drawn) ; returns value.
a: 112

q: Param readout= cell viability; system= P12-Ichikawa; entry= "O=C(O)c1ccccc1C(=O)Nc1ccc(-c2ccccc2)cc1" ; returns value.
a: 114

q: Param readout= cell viability; system= P12-Ichikawa; entry= "Nc1nc(-c2nn(Cc3ccccc3F)c3ncccc23)nc(N)c1N1CCOCC1" ; returns value.
a: 107

q: Param readout= cell viability; system= P12-Ichikawa; entry= "CNC(=O)[C@H](Cc1ccccc1)NC(=O)[C@H](CC(C)C)[C@H](CSc1cccs1)C(=O)NO" ; returns value.
a: 73.8

q: Param readout= cell viability; system= P12-Ichikawa; entry= "CC[C@H]1OC(=O)[C@H](C)[C@@H](O[C@H]2C[C@@](C)(OC)[C@@H](O)[C@H](C)O2)[C@H](C)[C@@H](O[C@@H]2O[C@@H](C)C[C@H](N(C)C)[C@H]2O)[C@](C)(O)C[C@@H](C)C(=O)[C@H](C)[C@@H](O)[C@]1(C)O" ; returns value.
a: 57.4

q: Param readout= cell viability; system= P12-Ichikawa; entry= "CNC(=O)c1cccc(-c2ccc3c(N4CCOC[C@@H]4C)nc(N4CCOC[C@@H]4C)nc3n2)c1" ; returns value.
a: 64.8

Where do the numbers come from? From the supplement of paper PMC11451515.
